The reported measurements were obtained from ChEMBL document CHEMBL1201862.

# Tested on: NCI-H460
# assay.notes: NCI tumour cell line growth inhibition, 48 h
Calls of active or inactive are those of the source. Rule as the data show it: active = GI50 up to about 1.1 µM and inactive = higher.
quantity: GI50

Problem: Bench note: what GI50 did COC1=CC(=O)c2c(O)c3c(c(O)c2C1=O)C=C(C)OC3O (stereo unspecified) show?
Solution: 1.35 µM (inactive)

Problem: Bench note: what GI50 did `Fc1cc(C2=C[C@H](c3ccc(Cl)cc3)NC(=S)N2)c(Cl)cc1Cl` show?
Solution: 34 µM (inactive)

Problem: Bench note: what GI50 did `c1ccc([B-]2(c3ccccc3)NCCCO2)cc1` show?
Solution: 72.8 µM (inactive)

Problem: Bench note: what GI50 did `CNNC1=NS(=O)(=O)c2cc(C)c(Cl)cc2S1` show?
Solution: > 10 µM (inactive)

Problem: Bench note: what GI50 did `Cc1ccc(Cc2c(=O)[nH]nc3ccccc23)cc1` show?
Solution: > 100 µM (inactive)

Problem: Bench note: what GI50 did CCC1CC(C)=CCN1S(=O)(=O)c1ccc(C)cc1 (stereo unspecified) show?
Solution: 21.1 µM (inactive)

Problem: Bench note: what GI50 did CCOP(=O)(OCC)C(Cc1ccccc1)N=C(c1ccccc1)c1ccccc1 (stereo unspecified) show?
Solution: 14.8 µM (inactive)

Problem: Bench note: what GI50 did Clc1ccc2c(c1)C1C(CO2)C(c2ccccc2)=NN1c1ccccc1 (stereo unspecified) show?
Solution: 36.2 µM (inactive)

Problem: Bench note: what GI50 did CC(=O)OC1CC2C(C)(C)C(=O)C=CC2(C)C2CCC3(C)C(c4ccoc4)OC(=O)C4OC43C12C (stereo unspecified) show?
Solution: 3.48 µM (inactive)

Problem: Bench note: what GI50 did `COC(=O)CCCCCOS(=O)(=O)c1ccc(C)cc1` show?
Solution: > 100 µM (inactive)

Problem: Bench note: what GI50 did NC(=O)C(N)CC12CC3CC(CC(C3)C1)C2 (stereo unspecified) show?
Solution: 34.4 µM (inactive)

* * *

Could you please report measured GI50 for the items listed next?
# Test system: KM12
# assay.notes: NCI tumour cell line growth inhibition, 48 h
Active and inactive are the calls of the source. No stated cut-off is given here; in the data, active = GI50 up to about 1.1 µM and inactive = higher.

Problem: Observed GI50 on KM12 for COc1ccc(CCN(C)C2CCC(C#N)(c3ccc(OC)c(OC)c3)CC2)cc1OC (centres undefined) , please.
Solution: > 100 µM (inactive)

Problem: Observed GI50 on KM12 for `NC(=O)N/N=C1\C[C@H]2CCCC[C@H]2C1` , please.
Solution: > 100 µM (inactive)

Problem: Observed GI50 on KM12 for c1ccc2[nH]c(C3CCCCO3)nc2c1 (centres undefined) , please.
Solution: 50.4 µM (inactive)

Problem: Observed GI50 on KM12 for `O=C(Oc1cc(=O)c(OC(=O)c2ccccc2)co1)c1ccccc1` , please.
Solution: > 100 µM (inactive)

Problem: Observed GI50 on KM12 for `Cc1n[nH]c(=O)n1/N=C/c1ccc([N+](=O)[O-])o1` , please.
Solution: 13.7 µM (inactive)

Problem: Observed GI50 on KM12 for `O=Cc1ccc(OCc2cccc(COc3ccc(/C=N\Nc4ccc([N+](=O)[O-])cc4[N+](=O)[O-])cc3)n2)cc1` , please.
Solution: > 100 µM (inactive)

Problem: Observed GI50 on KM12 for `CN(C)CCSc1cc(-c2ccccc2)c2ccccc2n1` , please.
Solution: 14.3 µM (inactive)

Problem: Observed GI50 on KM12 for `CCOC(=O)N1N(c2ccccc2)C(=O)C1(c1ccccc1)c1ccccc1` , please.
Solution: 73.5 µM (inactive)

Problem: Observed GI50 on KM12 for `c1cc(CSP234N5CCN2CCN3CCN4CC5)cc(CSP234N5CCN2CCN3CCN4CC5)c1` , please.
Solution: 19.5 µM (inactive)

Problem: Observed GI50 on KM12 for `CCCCCCc1cc2cc(C(=O)Nc3cccc(C(F)(F)F)c3)c(=N)oc2cc1O` , please.
Solution: 2.84 µM (inactive)

Problem: Observed GI50 on KM12 for `O=C(O)Cc1ccc(Oc2nc3ccccc3nc2-c2ccccc2)cc1` , please.
Solution: 60.5 µM (inactive)

Problem: Observed GI50 on KM12 for CC(C)CC(=O)CC(O)C(Cl)(Cl)Cl (centres undefined) , please.
Solution: > 100 µM (inactive)

Problem: Observed GI50 on KM12 for S=C1CC(c2ccccc2)Sc2ccc(Cl)cc2N1 (centres undefined) , please.
Solution: 56.6 µM (inactive)

Problem: Observed GI50 on KM12 for `Cc1cc2occ(C)c(=O)c2c2c1OC(C)(C)S2` , please.
Solution: > 100 µM (inactive)

Problem: Observed GI50 on KM12 for O=C1CCC2(O)c3ccccc3C2Cc2ccccc21 (centres undefined) , please.
Solution: > 100 µM (inactive)

Problem: Observed GI50 on KM12 for `COc1cc(NCc2ccc3nc(N)nc(N)c3c2C)cc(OC)c1OC` , please.
Solution: 0.0478 µM (active)

Problem: Observed GI50 on KM12 for `O=C1c2cccc3cccc(c23)C(=O)N1CCCNCCCCNCCCN1C(=O)c2cccc3cccc(c23)C1=O` , please.
Solution: 0.108 µM (active)

Problem: Observed GI50 on KM12 for O=C1CCC2(c3ccc(F)cc3)Nc3ccccc3N12 (centres undefined) , please.
Solution: > 100 µM (inactive)

Problem: Observed GI50 on KM12 for `CCOC(=O)C1=C(Nc2ccccc2)SC/C1=N\NC(=O)Cc1ccccc1` , please.
Solution: > 100 µM (inactive)

Problem: Observed GI50 on KM12 for `COC(=O)C(CCSc1ccccc1)C(=O)OC` , please.
Solution: > 100 µM (inactive)

Problem: Observed GI50 on KM12 for `Cc1occc1C(=S)Nc1ccc(Cl)c(C(=O)OCC(C)C)c1` , please.
Solution: 14.4 µM (inactive)

Problem: Observed GI50 on KM12 for `CN/C(=N\C#N)N(Cc1ccccc1)Cc1ccccc1` , please.
Solution: > 100 µM (inactive)

Problem: Observed GI50 on KM12 for C/C=C1\CCC2c3[nH]c4ccccc4c3CCN2C1 (centres undefined) , please.
Solution: > 100 µM (inactive)

Problem: Observed GI50 on KM12 for Fc1ccc(C2NC(=S)NC3=C2CCOc2c3ccc3ccccc23)cc1 (centres undefined) , please.
Solution: 21.8 µM (inactive)

Problem: Observed GI50 on KM12 for `CSc1cc(=O)n2c3ccccc3c3ccnc1c32` , please.
Solution: > 82.2 µM (inactive)

Problem: Observed GI50 on KM12 for `O=C(CCCn1ccnc1[N+](=O)[O-])NCCn1ccnc1[N+](=O)[O-]` , please.
Solution: > 100 µM (inactive)

Problem: Observed GI50 on KM12 for CS(=O)(=O)Nc1ccc2c(c1)N(S(C)(=O)=O)CC2CCl (centres undefined) , please.
Solution: > 100 µM (inactive)

Problem: Observed GI50 on KM12 for `Cc1n(-c2ccccc2)c2c([n+]1Cc1ccc([N+](=O)[O-])cc1)C(=O)c1ccccc1C2=O` , please.
Solution: 2.29 µM (inactive)

Problem: Observed GI50 on KM12 for `CCOC(=O)N/N=C(\CC)OCC` , please.
Solution: > 100 µM (inactive)
